Tested on: DK-MG (Glioblastoma)
Experimental details: combination Emax (second highest fraction inhibited in the dose matrix, 72 h); higher = more inhibition; extreme values may be limits of the assay
Field: combination Emax. Provide a value for each of the compounds that follow.
Give bare numbers.

Compound: CN(CCO)CC[C@H](CSc1ccccc1)Nc1ccc(S(=O)(=O)NC(=O)c2ccc(N3CCC([C@@H](O)c4ccccc4-c4ccc(Cl)cc4)CC3)cc2)cc1S(=O)(=O)C(F)(F)F [AZD4320] + CCN(CCO)CCCOc1ccc2c(Nc3cc(CC(=O)Nc4cccc(F)c4)[nH]n3)ncnc2c1 [AZD2811] (first compound max 1 µM, 7x7, partner max 1 µM)
combination Emax: 0.255
//
Compound: COc1cccc(OCCCN)c1-c1cc(Nc2cnc(C#N)cn2)n[nH]1 [Prexasertib] + CCc1c2c(nc3ccc(O)cc13)-c1cc3c(c(=O)n1C2)COC(=O)[C@]3(O)CC [SN-38] (first compound max 1 µM, 7x7, partner max 0.3 µM)
combination Emax: 0.295

Provide combination Emax values for the following items, in order.
1. COc1nnc2ccc(N3CCC(c4ccc(OCCN5CCN(C)C(=O)[C@H]5C)cc4)CC3)nn12 [AZD5153] + CCN(CCO)CCCOc1ccc2c(Nc3cc(CC(=O)Nc4cccc(F)c4)[nH]n3)ncnc2c1 [AZD2811] (first compound max 1 µM, 7x7, partner max 1 µM)
2. C[C@@H]1COCCN1c1cc(C2([S@](C)(=N)=O)CC2)nc(-c2ccnc3[nH]ccc23)n1 [AZD6738] + O=C(c1cc(Cc2n[nH]c(=O)c3ccccc23)ccc1F)N1CCN(C(=O)C2CC2)CC1 [Olaparib] (first compound max 10 µM, 7x7, partner max 10 µM)
3. Cc1c2c(nn1C)CSCc1cc(n(C)n1)CSc1cc(c3ccccc3c1)OCCCc1c(C(=O)O)n(C)c3c-2c(Cl)ccc13 [AZD5991] + Cc1cc2ncnn2cc1Nc1ncc2c(n1)n(C1CCOCC1)c(=O)n2C [AZD7648] (first compound max 1 µM, 7x7, partner max 10 µM)
4. Cn1cnc2c(F)c(Nc3ccc(Br)cc3Cl)c(C(=O)NOCCO)cc21 [Selumetinib] + C[C@@H]1COCCN1C2=NC(=NC(=C2)C3(CC3)[S@](=N)(=O)C)C4=C5C=CNC5=NC=C4 [AZD6738] (first compound max 10 µM, 7x7, partner max 10 µM)
5. CN(CCO)CC[C@H](CSc1ccccc1)Nc1ccc(S(=O)(=O)NC(=O)c2ccc(N3CCC([C@@H](O)c4ccccc4-c4ccc(Cl)cc4)CC3)cc2)cc1S(=O)(=O)C(F)(F)F [AZD4320] + C[C@@H](Nc1cc(F)cc(F)c1)c1cc(C(=O)N(C)C)cc2c(=O)cc(N3CCOCC3)oc12 [AZD8186] (first compound max 1 µM, 7x7, partner max 3 µM)

0.614
0.316
0.509
0.417
0.557

###

Tested on: SCC90 (Head and Neck Carcinoma)
Experimental details: combination Emax (second highest fraction inhibited in the dose matrix, 72 h); higher = more inhibition; extreme values may be limits of the assay
Field: combination Emax. Provide a value for each of the compounds that follow.
Answers are plain numbers.

Below: 2 compounds and their reported combination Emax.
Compound: C[C@@H](c1ccc2nccn2c1)n1nnc2ncc(-c3cnn(C)c3)nc21 [Savolitinib] + Cc1c2c(nn1C)CSCc1cc(n(C)n1)CSc1cc(c3ccccc3c1)OCCCc1c(C(=O)O)n(C)c3c-2c(Cl)ccc13 [AZD5991] (first compound max 1 µM, 7x7, partner max 1 µM)
combination Emax: 0.454
--
Compound: COc1cccc(OCCCN)c1-c1cc(Nc2cnc(C#N)cn2)n[nH]1 [Prexasertib] + C=CCn1c(=O)c2cnc(Nc3ccc(N4CCN(C)CC4)cc3)nc2n1-c1cccc(C(C)(C)O)n1 [AZD1775] (first compound max 1 µM, partner max 1 µM)
combination Emax: 0.94

Provide combination Emax values for the following items, in order.
1. Cc1c2c(nn1C)CSCc1cc(n(C)n1)CSc1cc(c3ccccc3c1)OCCCc1c(C(=O)O)n(C)c3c-2c(Cl)ccc13 [AZD5991] + Cc1cc2ncnn2cc1Nc1ncc2c(n1)n(C1CCOCC1)c(=O)n2C [AZD7648] (first compound max 1 µM, 7x7, partner max 10 µM)
2. COc1cccc(OCCCN)c1-c1cc(Nc2cnc(C#N)cn2)n[nH]1 [Prexasertib] + C[C@@H]1COCCN1C2=NC(=NC(=C2)C3(CC3)[S@](=N)(=O)C)C4=C5C=CNC5=NC=C4 [AZD6738] (first compound max 1 µM, 7x7, partner max 10 µM)

1: 0.937; 2: 0.679
